Each recorded value in this set is attributed to patent US10988481B2.

Assay System: MOR (Mus musculus, UniProt P42866)
Sequence (P42866 whole entry, looked up): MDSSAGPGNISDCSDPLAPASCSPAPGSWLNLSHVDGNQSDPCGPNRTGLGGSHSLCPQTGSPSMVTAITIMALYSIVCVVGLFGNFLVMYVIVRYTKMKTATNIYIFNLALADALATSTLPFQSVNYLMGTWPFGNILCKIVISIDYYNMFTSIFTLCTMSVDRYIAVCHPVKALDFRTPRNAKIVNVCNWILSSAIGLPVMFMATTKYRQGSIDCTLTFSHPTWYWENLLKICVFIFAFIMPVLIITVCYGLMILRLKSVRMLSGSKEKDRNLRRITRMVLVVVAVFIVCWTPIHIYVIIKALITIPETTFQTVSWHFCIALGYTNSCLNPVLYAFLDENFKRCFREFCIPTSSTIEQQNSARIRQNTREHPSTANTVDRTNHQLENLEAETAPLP
Format: biochemical
Condition Notes: relative to 3 μM DAMGO at MOR
# binarize Emax(% DAMGO) ± SEM: threshold 40 % DAMGO inclusive, high side t, low side f

Take a look at these entries with their results.
• Cl.O=C(CCCc1c[nH]c2ccccc12)N[C@@H]1CC[C@@]2(O)[C@H]3Cc4ccc(O)c5c4[C@@]2(CCN3CC2CC2)[C@H]1O5 [Compound 18] = f
• Cl.O=C(N[C@H]1CC[C@@]2(O)[C@H]3Cc4ccc(O)c5c4[C@@]2(CCN3CC2CC2)[C@H]1O5)c1ccc2cc[nH]c2c1 [Compound 5] = f
• Cl.O=C(N[C@H]1CC[C@@]2(O)[C@H]3Cc4ccc(O)c5c4[C@@]2(CCN3CC2CC2)[C@H]1O5)c1c[nH]c2ccccc12 [Compound 2] = f
• Cl.O=C(CCCc1c[nH]c2ccccc12)N[C@H]1CC[C@@]2(O)[C@H]3Cc4ccc(O)c5c4[C@@]2(CCN3CC2CC2)[C@H]1O5 [Compound 9] = t

Field: next compound
Data request: # check: Emax(% DAMGO) ± SEM of Cl.O=C(N[C@H]1CC[C@@]2(O)[C@H]3Cc4ccc(O)c5c4[C@@]2(CCN3CC2CC2)[C@H]1O5)c1cc2ccccc2[nH]1 [Compound 1] is greater than or equal to 40 % DAMGO
Data returned: t
